Target Under Test: Homeobox protein SIX1 (Homo sapiens) + Protein phosphatase EYA2 (Homo sapiens) (UniProt Q15475+O00167)
Sequence (O00167 whole entry, looked up): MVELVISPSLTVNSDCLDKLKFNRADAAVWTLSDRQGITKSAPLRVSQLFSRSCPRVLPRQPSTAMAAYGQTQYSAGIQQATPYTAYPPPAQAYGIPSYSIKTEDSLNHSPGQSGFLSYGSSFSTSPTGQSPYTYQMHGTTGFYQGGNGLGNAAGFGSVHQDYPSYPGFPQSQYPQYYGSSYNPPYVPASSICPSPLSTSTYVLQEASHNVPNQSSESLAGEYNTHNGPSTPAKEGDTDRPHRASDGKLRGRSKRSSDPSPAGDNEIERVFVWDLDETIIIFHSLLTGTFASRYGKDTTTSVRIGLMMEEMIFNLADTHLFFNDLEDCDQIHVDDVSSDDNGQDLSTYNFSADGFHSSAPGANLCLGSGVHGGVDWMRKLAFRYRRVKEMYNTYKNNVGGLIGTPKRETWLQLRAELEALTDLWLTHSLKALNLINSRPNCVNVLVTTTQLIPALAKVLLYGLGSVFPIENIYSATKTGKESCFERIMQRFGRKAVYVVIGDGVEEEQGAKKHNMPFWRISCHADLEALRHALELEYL
Sequence (Q15475 whole entry, looked up): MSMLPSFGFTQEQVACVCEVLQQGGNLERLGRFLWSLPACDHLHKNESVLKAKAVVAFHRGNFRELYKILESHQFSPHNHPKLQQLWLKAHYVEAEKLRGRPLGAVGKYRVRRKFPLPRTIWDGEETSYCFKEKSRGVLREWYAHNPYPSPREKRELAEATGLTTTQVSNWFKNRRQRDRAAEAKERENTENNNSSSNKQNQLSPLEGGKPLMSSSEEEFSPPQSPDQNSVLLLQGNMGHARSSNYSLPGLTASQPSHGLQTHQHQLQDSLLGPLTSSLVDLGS
Test Summary: qHTS Assay for Inhibitors of the Six1/Eya2 Interaction; note: % is set by controls: 0 for no effect and ±100 for the full control effect
Measurement Conditions: AlphaScreen GST-Six1/His-Eya2 binding, biochemical; stronger effect = lower value
Hit rate of the full screen: of about 360,000 compounds, about 2,000 (0.56%) were called active. Roughly 2% stayed inconclusive and do not appear here. What follows is part of a selection rich in actives, with near analogues and random picks from the rest.
Readout Label: activity change (%)
One number for each entry, in %.

Data request: activity change for CCOc1cccc(/C=N/N2C(=O)CSC2=S)c1O ?
Data returned: -92.8

Please state, for each entry, its recorded activity change.
1. COc1ccc(Cc2nnc(N/N=C/c3ccccc3O)[nH]c2=O)cc1OC
2. Cc1nc(N=C(N)N)nc2c(C)cccc12
3. CCCc1c(C(=O)Nc2ccc(F)cc2)cnn1-c1ccccc1
4. Cc1ccc(S(=O)(=O)N2CC3C(=O)C[C@@H](c4ccccc4Cl)N(S(=O)(=O)c4ccc(C)cc4)C3CC2c2ccccc2)cc1 (stereo not given in full)

Data returned:
1. -85.7
2. -72.7
3. 1.46
4. -4.43

Look up activity change for the entries below, preserving their order.
1. COc1cc(N2C(=O)CSC2=S)cc(OC)c1OC
2. O=C(NC1CCCC1)C1c2ccccc2OCC(=O)N1CC(F)(F)F (stereo not given)
3. O=C(NCc1ccccn1)c1cnc2sccn2c1=O
4. CC(C)c1ccc(Cc2nnc(NCCCO)[nH]c2=O)cc1
5. CC(C)N1C(=O)c2ccccc2NC(=O)C1C(=O)NCc1cccs1 (stereo not given)

Data returned:
[-9.23, -3, -1.07, 4.24, 0]

---

Target Under Test: Homeobox protein SIX1 (Homo sapiens) + Protein phosphatase EYA2 (Homo sapiens) (UniProt Q15475+O00167)
Test Summary: qHTS Assay for Inhibitors of the Six1/Eya2 Interaction; note: % is set by controls: 0 for no effect and ±100 for the full control effect
Measurement Conditions: AlphaScreen GST-Six1/His-Eya2 binding, biochemical
The whole screen tested about 360,000 compounds, of which about 2,000 (0.56%) were called active. About 2% were inconclusive and are not listed. No stated cut-off is given here; in the data, active means activity change below about -65%; inconclusive means mostly about -30% to -63%; inactive means weaker than that. Only a selection was taken, and actives are over-represented in it overall.
Your reply should match one of these outcome classes. class 1 = active, class 0 = inactive

Data request: Can you look up the reported call for CCc1c(-c2ccc(F)cc2)ncn1Cc1cccc(-c2ccccc2)c1 for me?
Data returned: class 0

Data request: Answer briefly: the call reported for Cc1cccc(C)c1NC(=O)C(c1ccc(C(F)(F)F)cc1)n1c(=O)c(-c2ccco2)nc2ccccc21 (stereo unspecified) in this assay.
Data returned: class 0

Data request: Assay outcome for CCCOc1ccc(Cc2c(O)nc(N)[nH]c2=O)cc1C : what was it?
Data returned: class 0

Data request: Each molecule tested received a call. Report the one for CCC(C(=O)NCc1ccccc1)n1c(Cc2cc(F)cc(F)c2)nc2ccccc21 (stereo unspecified) .
Data returned: class 0

Data request: Recorded call for Cc1ccc(-c2c(N)nc3ncccn23)cc1 ?
Data returned: class 0

Data request: # lookup: test call for COc1ccc(Nc2nc(-c3cccnc3)nc3ccccc23)cn1
Data returned: class 1

---

Please respond with reported activity change for every item in the list.
Target Under Test: Homeobox protein SIX1 (Homo sapiens) + Protein phosphatase EYA2 (Homo sapiens) (UniProt Q15475+O00167)
Test Summary: qHTS Assay for Inhibitors of the Six1/Eya2 Interaction; note: % is set by controls: 0 for no effect and ±100 for the full control effect
Measurement Conditions: AlphaScreen GST-Six1/His-Eya2 binding, biochemical; stronger effect = lower value
The campaign covered roughly 360,000 compounds. About 2,000 (0.56%) were called active. Roughly 2% stayed inconclusive and do not appear here. For the sample, actives were picked, then their nearest neighbours and some compounds at random.
Give bare numbers, in %.

Illustrative cases are given below, each with its answer.
Data request: Query: activity change; subject: CN(Cc1cn(Cc2ccc(C(F)(F)F)cc2)nn1)C1CN(Cc2cn(Cc3ccc(C(F)(F)F)cc3)nn2)S(=O)(=O)C1 (stereo not given)
Data returned: 3.81

Data request: Reported activity change, molecule O=C(Nc1cccnc1)c1cc2cc(Br)ccc2oc1=O : ____
Data returned: 17.5

Data request: Please look up its activity change: COc1cc(CC(=O)N2CCC(n3nccc3NC(=O)C3CC3)CC2)cc(OC)c1OC
Data returned: -0.446

Data request: Suppose we examine the molecule O=C(Nc1ccc(C(=O)O)cc1)/C(=C/c1ccc([N+](=O)[O-])cc1)NC(=O)c1ccccc1 ; what activity change value has been reported?
Data returned: -4.68

Data request: Would you mind telling me what activity change value was observed for Cn1cncc1COC(=O)c1ccc(Cl)cc1 ?
Data returned: -6.11

State the recorded activity change for every item in the following list.
1. Cc1ccc(CNC(=O)CCCNC(=O)c2ccc(Cl)cc2)n1C
2. CCc1ccc(Oc2coc3cc(OC(=O)c4cc5ccccc5oc4=O)ccc3c2=O)cc1
3. COC(=O)[C@]12CCCCC=C1N(Cc1ccco1)C(=O)[C@H](CC(=O)NCCCCc1ccccc1)C2
4. Cc1cc(OC(=O)c2ccc(Cl)cc2)cc(=O)n1C

Data returned:
-7.14
-6.39
-13.7
-92.4

Data request: Fill in the blank: the reported activity change of Cc1c(N=Nc2ccc(N(C)C)cc2)c(=O)n(-c2ccccc2)n1C is ____.
Data returned: -7.33

---

Target Under Test: Homeobox protein SIX1 (Homo sapiens) + Protein phosphatase EYA2 (Homo sapiens) (UniProt Q15475+O00167)
Test Summary: qHTS Assay for Inhibitors of the Six1/Eya2 Interaction; note: % is set by controls: 0 for no effect and ±100 for the full control effect
Measurement Conditions: AlphaScreen GST-Six1/His-Eya2 binding, biochemical; stronger effect = lower value
Screen size: about 360,000 compounds; about 2,000 (0.56%) were called active. About 2% were inconclusive and are not listed. The entries come from a sample that favours actives as a whole.
Answer each item with its documented activity change.
Numbers only, in %.

Worked cases, activity change given:
Data request: May I ask what activity change has been recorded for CCC(CC)C(C(=O)NC1CCCC1)N1CCN(c2cc(C)nc3ccccc23)CC1 (stereo not drawn) ?
Data returned: 0.151

Data request: Reported activity change for CC1(C)OC(=O)C2=C(C[C@@H](C3CC3)O[C@H]2CCc2cccc(Cl)c2)O1 : what is it?
Data returned: 7.67

Data request: Recorded activity change of CCOC(=O)C1C(C)C(C(C)(C)C)N(S(=O)(=O)c2ccc(C)cc2)C1c1ccccc1 (stereo not drawn) , please.
Data returned: 6.65

Batch: activity change for all items listed.
1. O=C(Nc1ccc(Br)cc1)c1cc(S(=O)(=O)Nc2ccccn2)ccc1Cl
2. CC(C)(C)C(=O)CSc1nc2ccccc2o1

Data returned:
1. -3.31
2. 10

Provide activity change values for the following items, in order.
1. CO[C@@H]1CN(C)C(=O)c2cc(NC(=O)Nc3cc(F)ccc3F)ccc2OC[C@H](C)N(C(=O)c2ccccn2)C[C@@H]1C
2. Cc1ccc(S(=O)(=O)N[C@H]2CCC[C@@H]2O)cc1
3. O=C(CSc1cccc2cccnc12)N/N=C/c1cccnc1
4. O=C(NCCCc1ccccc1)C(=O)NCC1OCCN1S(=O)(=O)c1ccccc1 (stereo not drawn)

Data returned:
[-5.82, 7.33, -80.7, 5.49]

Provide activity change for all items below, preserving their order.
1. COc1cc(/C=N/NC(=O)c2cccnc2)ccc1OC(=O)c1cccc(Br)c1
2. O=c1[nH]c2ccccc2n2c(-c3ccccc3)nnc12
3. O=C1c2ccccc2C(=O)N1CCCc1nc(-c2ccccc2)no1
4. Cc1ccc(S(=O)(=O)N(CC(=O)N/N=C/c2ccc(F)cc2)c2cccc3cccnc23)cc1
5. O=C(CSc1nc2ccccc2o1)N1CCN(c2ccccc2)CC1
6. CCOC(=O)N1CCN(C(=O)COc2ccc3oc4c(c3c2)CCCC4)CC1
7. NN=C(NN=Cc1ccccc1)c1ccccc1

Data returned:
-6.91
-65.3
1.31
-0.495
0.782
-10.2
15.8

Consider the following items and state reported activity change for each.
1. CCc1ccc(-c2cc(C)no2)cc1S(=O)(=O)NCCc1ccc(S(N)(=O)=O)cc1
2. Cn1cnc(S(=O)(=O)N2C[C@@H](O)COC[C@@H]3O[C@H](CC(=O)NC4CCC4)CC[C@H]32)c1
3. CCOc1ccc(CN2CCN(Cc3ccon3)CC2CCO)cc1 (stereo not drawn)
4. Cc1[nH]nc(SCC(=O)NCC(C)C)c1[N+](=O)[O-]
5. O=C1c2ccccc2C(=O)c2c1cccc2N1CCN(Cc2ccccc2)CC1
6. CCC(C)CN1C(=O)CSCC1(C)C(=O)NCc1ccccc1 (stereo not drawn)
7. CCN(CC)C(=O)CSc1nc2ccccc2o1

Data returned:
1: -4.17; 2: -0.831; 3: 5.89; 4: 3.57; 5: -88.9; 6: 7.26; 7: 6.18

---

Target Under Test: Homeobox protein SIX1 (Homo sapiens) + Protein phosphatase EYA2 (Homo sapiens) (UniProt Q15475+O00167)
Test Summary: qHTS Assay for Inhibitors of the Six1/Eya2 Interaction; note: % is set by controls: 0 for no effect and ±100 for the full control effect
Measurement Conditions: AlphaScreen GST-Six1/His-Eya2 binding, biochemical
Experimental: Its expression is low or undetectable in normal adult breast tissue but the gene is over-expressed in 50% of primary breast tumors and 90% of metastatic lesions. […] The first step of the 5 uL AlphaScreen assay is to dispense assay buffer (50 mM Tris, pH 8.0, 300 mM NaCl, 0.05% BSA, 0.02% Tween 20, 1 mM TCEP) into a Greiner 1536 white solid bottom microtiter plate (789175-F). […] The plate is read using a Perkin Elmer Envision using an AlphaScreen protocol.
Hit rate of the full screen: of about 360,000 compounds, about 2,000 (0.56%) were called active. Roughly 2% stayed inconclusive and do not appear here. No stated cut-off is given here; in the data, active means activity change below about -65%; inconclusive means mostly about -30% to -63%; inactive means weaker than that. Many of the other results were omitted from the sample, so actives are more common in it than they were.
// classify into T for active, F for inactive

Data request: Short answer needed: outcome of this test for FC(F)(F)c1cccc(-c2nc3ccccc3n2C(c2ccccc2)c2nc3ccccc3[nH]2)c1 (configuration not stated) ?
Data returned: F

Data request: Check the results log: what was the call for CSCCC(NC(=O)c1ccco1)C(=O)Nc1cc(C)ccn1 (configuration not stated) ?
Data returned: F

Data request: Write down the call the test reported for this molecule. Item: Nc1ncnc2c1ncn2[C@@H]1O[C@H](CNCc2cccn2-c2nccs2)[C@@H](O)[C@H]1O
Data returned: F

Data request: Identify the outcome logged in this assay for the molecule shown: COc1ccccc1NC(=O)COC(=O)COc1ccccc1F
Data returned: F

Data request: What outcome does the record of this test show for CSCCC(C(=O)NC(C)(C)C)n1c(-c2ccccc2)nc2ccccc21 (configuration not stated) ?
Data returned: F

Data request: What did this assay record as the result for COC(=O)[C@@]12C[C@@H](CC(=O)N3CCCCC3)C(=O)N(Cc3ccc4c(c3)OCO4)C1=CCC(C)(C)C2 ?
Data returned: F

Data request: Can you look up the reported call for COC(=O)C[C@H]1C=C[C@H](NC(=O)c2ccc(F)cc2)[C@@H](CO)O1 for me?
Data returned: F

Data request: Hi, sorry to bother you, what did the test record for Cc1cccc(C)c1NC(=O)CN1CCN(c2ccc(F)cc2)CC1 ?
Data returned: F

***
Data request: Answer briefly: the call reported for CCCC[C@@H]1CN=C(N)N1CCc1cc(C(F)(F)F)cc(C(F)(F)F)c1 in this assay.
Data returned: F

Data request: Each molecule tested received a call. Report the one for Cc1cc(NC(=O)c2ccccc2C)no1 .
Data returned: F

Data request: Hey, what did the test say about Cc1cc(NC(=O)[C@H](C)NC(=O)c2ccco2)ccc1Br ?
Data returned: F
